The reported measurements were obtained from BigSolDB 2.1.

- Condition details: in ethanol, 280.65 K
Measurement type: solubility (mole fraction)
Keep the answer to the number alone.

# solubility (mole fraction) lookup, item O=[N+]([O-])c1ccc(Cl)c(Cl)c1 0.0271

###

- Condition details: in methanol, 288.15 K
Measurement type: solubility (mole fraction)

# solubility (mole fraction) lookup, item O=[N+]([O-])c1ccc(Cl)c(Cl)c1 0.0422

###

- Condition details: in ethanol, 288.15 K
Measurement type: solubility (mole fraction)
Could you respond with only the numeric value?

# query: solubility (mole fraction) of entry O=[N+]([O-])c1ccc(Cl)c(Cl)c1 0.0549

###

- Condition details: in ethanol, 283.15 K
Measurement type: solubility (mole fraction)

Give the measured solubility (mole fraction) of O=[N+]([O-])c1ccc(Cl)c(Cl)c1 . 0.0352
